# Test system: α7 integrin promoter
# experiment: muscle cell-based assay: α7βgal+/− myoblasts/myotubes, LacZ reporter, β-galactosidase cleavage of FDG
# Parameters: species or system mouse
# study_conditions: Table 12; curve fit
Label rule, in plain words: Fit HillSlope of 2 and up is Satisfied, under 2 is Not satisfied.

{"columns": ["molecule", "category"],
 "data": [
  ["NC1=Nc2cccc3cccc1c23 [Compound 117]", "Not satisfied"],
  ["O=C1SC(Cc2ccccc2)C(=O)N1c1ccccc1 (stereo not drawn) [Compound 50]", "Not satisfied"],
  ["CCOC(=O)c1sc(=N)n(-c2ccc(OC)cc2)c1C [Compound 26]", "Not satisfied"],
  ["C/C(=N\\OCC(=O)OC(C)C(=O)Nc1ccc(C(N)=O)cc1)c1ccc2c(c1)OCO2 (stereo not drawn) [Compound 70]", "Not satisfied"],
  ["O=C(Cn1cccc1C(=O)c1ccccc1)NCCCc1ccccc1 [Compound 43]", "Not satisfied"],
  ["COc1ccc(Nc2ncnc3ccc(Br)cc23)cc1OC [Compound 75]", "Not satisfied"],
  ["COc1ccccc1-c1coc2c3c(ccc2c1=O)OC1CCCCN1C3 (stereo not drawn) [Compound 3]", "Satisfied"],
  ["O=C(Nc1ccc(Cl)cc1N1CCOCC1)C1CCCCC1 [Compound 53]", "Not satisfied"],
  ["COc1ccc(Nc2ncnc3ccc(C)cc23)cc1 [Compound 58]", "Not satisfied"],
  ["CN(C)S(=O)(=O)c1cccc(C(=O)Nc2ccc3c(c2)CCC3)c1 [Compound 8]", "Satisfied"],
  ["CC(C)/N=C(\\S)NN=C1CCCCCCCCCCC1 [Compound 36]", "Not satisfied"],
  ["CNc1nnc(SCC(=O)c2cc(C)n(C3CC3)c2C)s1 [Compound 68]", "Satisfied"],
  ["O=C(Nc1cc(Br)ccc1O)C1CC(c2ccccc2Cl)=NO1 (stereo not drawn) [Compound 108]", "Satisfied"],
  ["CCc1nnc(NC(=O)c2ccc(S(=O)(=O)NCC(C)C)cc2)s1 [Compound 66]", "Satisfied"],
  ["COc1ccc(-c2csc3ncnc(N4CCN(c5ccccc5[N+](=O)[O-])CC4)c23)cc1 [Compound 94]", "Satisfied"],
  ["COc1cccc(C(=O)NCC(=O)N2CCC3(CC2)NCCc2[nH]cnc23)c1 [Compound 93]", "Not satisfied"],
  ["NS(=O)(=O)c1ccc(NC(=O)c2cc(-c3ccccc3O)[nH]n2)cc1 [Compound 105]", "Satisfied"],
  ["COc1ccc(Cl)cc1NC(=O)CC(=O)Nc1cc(Cl)ccc1OC [Compound 41]", "Satisfied"],
  ["COc1ccc(NC(=O)c2cccc(N3C(=O)c4ccc(C(=O)Nc5ccc(OC)c(O)c5)cc4C3=O)c2)cc1O [Compound 13]", "Satisfied"],
  ["COc1ccc(N(CC(=O)NCCC(C)C)C(=O)c2snc(C(=O)NC3CCCCC3)c2N)c(OC)c1 [Compound 98]", "Satisfied"],
  ["O=C(NC1CCCC1)c1ccc(CS(=O)(=O)Cc2ccccc2F)o1 [Compound 7]", "Not satisfied"],
  ["CC1CCN(S(=O)(=O)c2ccc(S(=O)(=O)N3CCCC3)cc2)CC1 [Compound 72]", "Satisfied"],
  ["CN(CC(=O)Nc1cccc(F)c1)C(=O)c1ccc(-c2ccc(Cl)cc2)o1 [Compound 90]", "Satisfied"],
  ["CN(C)/C=N/c1nccc(-c2cccs2)n1 [Compound 121]", "Not satisfied"]
]}
